Tested on: Reverse transcriptase
Assay: Inhibition of reverse transcriptase activity ([3H]dTTP incorporation into acid-insoluble fraction)
Settings: concentration 10 µg/ml
Measure: Percent inhibition (%)

> print(dat)
                      smiles.representation  value.units  reading
1  O=C(O)[C@H]1O[C@@H](Oc2cc3oc(-c4ccccc4)cc(=O)c3c(O)c2O)[C@H](O)[C@@H](O)[C@@H]1O            %       90
2      O=c1cc(-c2ccccc2)oc2cc(O)c(O)c(O)c12            %      100
3  O=c1c(O)c(-c2ccc(O)c(O)c2)oc2cc(O)cc(O)c12            %      100
4  COc1ccc([C@@H]2CC(=O)c3c(O)cc(O)cc3O2)cc1O            %      100

----------
System: Reverse transcriptase
Assay: Inhibition of reverse transcriptase activity ([3H]dTTP incorporation into acid-insoluble fraction)
Conditions: concentration 5 µg/ml
Measure: Percent inhibition (%)

> print(dat)
                      smiles.representation                 system  reading
1      O=c1cc(-c2ccccc2)oc2cc(O)c(O)c(O)c12  Reverse transcriptase     100%
2  O=C(O)[C@H]1O[C@@H](Oc2cc3oc(-c4ccccc4)cc(=O)c3c(O)c2O)[C@H](O)[C@@H](O)[C@@H]1O  Reverse transcriptase      73%
3  COc1ccc([C@@H]2CC(=O)c3c(O)cc(O)cc3O2)cc1O  Reverse transcriptase     100%
4  O=c1c(O)c(-c2ccc(O)c(O)c2)oc2cc(O)cc(O)c12  Reverse transcriptase      99%

----------
# Percent inhibition (%) per record follows
System: Reverse transcriptase
Experiment: Inhibition of reverse transcriptase activity ([3H]dTTP incorporation into acid-insoluble fraction)
Details: concentration 1 µg/ml
Measure: Percent inhibition (%)

> print(dat)
                      smiles.representation  reading
1      O=c1cc(-c2ccccc2)oc2cc(O)c(O)c(O)c12       92
2  O=C(O)[C@H]1O[C@@H](Oc2cc3oc(-c4ccccc4)cc(=O)c3c(O)c2O)[C@H](O)[C@@H](O)[C@@H]1O       19
3  COc1ccc([C@@H]2CC(=O)c3c(O)cc(O)cc3O2)cc1O       99
4  O=c1c(O)c(-c2ccc(O)c(O)c2)oc2cc(O)cc(O)c12       77

----------
Tested on: male rats of the Wistar line
Assay: Acute toxicity by oral administration, rats
Assay type: in vivo
Conditions: dose of 1 g/kg
Measure: acute toxicity (death)

> print(dat)
                      smiles.representation                 measure         reading
1  O=c1c(O)c(-c2ccc(O)c(O)c2)oc2cc(O)cc(O)c12  acute toxicity (death)  no animal died
2  COc1ccc([C@@H]2CC(=O)c3c(O)cc(O)cc3O2)cc1O  acute toxicity (death)  no animal died
3  O=C(O)[C@H]1O[C@@H](Oc2cc3oc(-c4ccccc4)cc(=O)c3c(O)c2O)[C@H](O)[C@@H](O)[C@@H]1O  acute toxicity (death)  no animal died
4      O=c1cc(-c2ccccc2)oc2cc(O)c(O)c(O)c12  acute toxicity (death)  no animal died

----------
# Percent inhibition (%) per record follows
System: Reverse transcriptase
Assay: Inhibition of reverse transcriptase activity ([3H]dTTP incorporation into acid-insoluble fraction)
Details: concentration 2 µg/ml
Measure: Percent inhibition (%)

> print(dat)
                      smiles.representation  reading
1  O=c1c(O)c(-c2ccc(O)c(O)c2)oc2cc(O)cc(O)c12      96%
2      O=c1cc(-c2ccccc2)oc2cc(O)c(O)c(O)c12      98%
3  O=C(O)[C@H]1O[C@@H](Oc2cc3oc(-c4ccccc4)cc(=O)c3c(O)c2O)[C@H](O)[C@@H](O)[C@@H]1O      27%
4  COc1ccc([C@@H]2CC(=O)c3c(O)cc(O)cc3O2)cc1O     100%
